The origin of these recorded values is PubChem BioAssay (NCI).

Reported TGI values for a set of molecules
- Test system: OVCAR-8 ovarian
- experimental_details: NCI tumour cell line growth inhibition, 48 h

Reference set, count: 3
Enquiry: Record O=C1N=C(c2ccccc2)OC1C(=O)c1ccccc1 (stereo not given) : what is its TGI with OVCAR-8 ovarian?
Return: > 100 µM

Enquiry: NC1=C(Cl)C(=O)c2ccc(S(N)(=O)=O)cc2C1=O , same question.
Return: 0.977 µM

Enquiry: // query: C#CCOCn1cnc2c(=S)nc[nH]c21
Return: > 100 µM

New cases:
Enquiry: Please state recorded TGI (tested on OVCAR-8 ovarian) of Cc1ccc(S(=O)(=O)/N=c2\ssc(Nc3ccccc3)c2Cl)cc1
Return: > 50 µM

Enquiry: Thanks! And O=C(NCc1ccccc1)c1cc2cc(O)c(O)cc2cn1 ?
Return: 89.7 µM

Enquiry: Same question for Cc1ccc(S(=O)(=O)OC2=C/C(=N\c3onc(C)c3C)c3ccccc3C2=O)cc1 please.
Return: 36.8 µM

Enquiry: Now this one: CN[C@]12CC3(C=CC(=O)C=C3)O[C@@]1(Cc1ccc(OC)cc1)N(C)C(=O)N2
Return: 21.3 µM

Enquiry: # repeat for COC1O[C@@H]2CCN3C(=O)[C@@H](OC(=O)c4ccc([N+](=O)[O-])cc4)[C@H]1C23 (stereo not given in full)
Return: > 100 µM

Enquiry: Next: CS(=O)(=O)c1nc(-c2cc3c(c(S(C)(=O)=O)n2)CCCC3)cc2c1CCCC2
Return: > 69.5 µM

Enquiry: Try this molecule next: CCC(C)C1NC(=O)C2CCCN2C(=O)C(CC2CO2)OC(=O)CCNC(=O)C(C)N(C)C(=O)C(C(C)C)N(C)C1=O (stereo not given)
Return: > 100 µM

Enquiry: Thanks! And C=CC1ON(C)CCc2cc(OC)c(OC)cc21 (stereo not given) ?
Return: > 100 µM

Enquiry: Quick one: O=C(CCN1CC2CCC(CC2)C1)c1cccs1
Return: 42.4 µM

Enquiry: Also check C=C1C(=O)O[C@@H]2C(=O)[C@@H](C)[C@@H]3C=CC(=O)[C@@]3(C)[C@@H](OC(=O)/C(C)=C\C)[C@H]12
Return: 12 µM
